Target: VEGFR2 (Homo sapiens, UniProt P35968)
Construct: host or cells: HUVEC
Sequence (P35968 20-1356): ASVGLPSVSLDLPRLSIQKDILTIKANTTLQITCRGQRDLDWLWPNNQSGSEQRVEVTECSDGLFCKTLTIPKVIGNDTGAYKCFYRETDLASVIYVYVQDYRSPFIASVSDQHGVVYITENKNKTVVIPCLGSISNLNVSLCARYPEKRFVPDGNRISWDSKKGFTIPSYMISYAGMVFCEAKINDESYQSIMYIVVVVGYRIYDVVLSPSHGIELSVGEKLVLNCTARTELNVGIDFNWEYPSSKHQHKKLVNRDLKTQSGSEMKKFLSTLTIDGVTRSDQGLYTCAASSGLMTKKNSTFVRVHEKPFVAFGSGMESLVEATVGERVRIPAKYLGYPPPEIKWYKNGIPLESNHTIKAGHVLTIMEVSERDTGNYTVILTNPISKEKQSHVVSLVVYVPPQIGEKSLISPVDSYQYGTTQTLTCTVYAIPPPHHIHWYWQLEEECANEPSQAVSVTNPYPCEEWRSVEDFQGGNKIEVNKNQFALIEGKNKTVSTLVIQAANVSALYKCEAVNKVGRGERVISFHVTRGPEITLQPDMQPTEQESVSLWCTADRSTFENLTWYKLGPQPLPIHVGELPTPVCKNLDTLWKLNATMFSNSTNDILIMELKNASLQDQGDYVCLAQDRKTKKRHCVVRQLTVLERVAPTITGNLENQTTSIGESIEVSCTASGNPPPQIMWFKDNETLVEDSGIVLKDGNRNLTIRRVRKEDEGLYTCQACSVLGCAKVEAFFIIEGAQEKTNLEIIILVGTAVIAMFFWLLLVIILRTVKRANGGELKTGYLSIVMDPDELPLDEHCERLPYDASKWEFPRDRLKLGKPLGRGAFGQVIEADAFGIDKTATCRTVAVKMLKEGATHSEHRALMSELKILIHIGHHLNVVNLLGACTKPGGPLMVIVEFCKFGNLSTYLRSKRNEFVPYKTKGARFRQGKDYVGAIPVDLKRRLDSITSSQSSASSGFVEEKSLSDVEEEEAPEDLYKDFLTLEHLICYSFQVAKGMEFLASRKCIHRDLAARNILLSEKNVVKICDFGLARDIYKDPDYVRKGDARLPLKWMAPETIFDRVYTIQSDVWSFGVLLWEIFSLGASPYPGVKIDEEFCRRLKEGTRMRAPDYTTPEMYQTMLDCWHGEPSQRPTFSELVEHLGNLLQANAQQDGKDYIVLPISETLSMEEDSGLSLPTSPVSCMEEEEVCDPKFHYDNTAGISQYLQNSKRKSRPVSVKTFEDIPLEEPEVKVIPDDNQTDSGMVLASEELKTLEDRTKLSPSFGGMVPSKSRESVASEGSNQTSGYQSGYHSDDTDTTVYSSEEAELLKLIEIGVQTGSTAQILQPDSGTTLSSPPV
Assay: VEGFR2 Phospho ELISA assay in HUVEC, VEGF stimulated
Assay type: cell-based
Conditions: 1 hour compound, 50 ng/mL VEGF 10 minutes
MEASUREMENT NAME: log10(IC50) (log10 of the value in nM)

{"columns": ["MOLECULE", "MEASUREMENT NAME", "MEASURED NUMBER"],
 "data": [
  ["Cc1cnc(Nc2ccc(OC3CCNCC3)cc2)nc1CCc1ccccc1CC(N)=O [Compound 26]", "log10(IC50)", 3.61],
  ["CC(N)c1ccc(Nc2ncc(C(F)(F)F)c(CCc3ccccc3CC(N)=O)n2)cc1 (stereo not drawn) [Compound 18]", "log10(IC50)", 3.41],
  ["Cc1cnc(Nc2ccc(C3(N)COC3)cc2)nc1CCc1ccccc1CC(N)=O [Compound 31]", "log10(IC50)", 3.71],
  ["CC(N)c1ccc(Nc2ncc(Cl)c(CCc3ccccc3CC(N)=O)n2)cc1 (stereo not drawn) [Compound 37]", "log10(IC50)", 2.30],
  ["Cc1cnc(Nc2cnn(C)c2)nc1CCc1ccccc1CC(N)=O [Compound 28]", "log10(IC50)", 3.84],
  ["Cc1cnc(Nc2ccc(N3CCNCC3)cc2)nc1CCc1ccccc1CC(N)=O [Compound 2]", "log10(IC50)", 3.64]
]}

The reported measurements were obtained from patent US20150225377A1.
